B1: glmS ribozyme (parent)
chain: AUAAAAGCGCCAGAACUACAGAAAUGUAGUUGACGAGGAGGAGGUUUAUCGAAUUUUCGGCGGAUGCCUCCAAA

# Variants of: B1
# experiment.summary: self-cleavage kobs at 2500 uM GlcN6P; higher = faster cleavage; RNA array
# test.parameters: with glucosamine-6-phosphate
This sample holds only a part of the variants without activity.
Measured self-cleavage kobs at 2500 uM GlcN6P of individual entries
The figure you give is taken to be in s⁻¹; do not add the unit.

Solved cases below.
AUAAAAGCGCCAGAACUACAGAAAUGUAGUUGACGAGGAGGAGGUUUAUCGAUUUUUGGGGGGAUGCCUCGAAA [A53U C58G C61G C71G] ... 0.000415
AUAAAAGCGCCCGAACUACAGAAAUGUAGUUGACGAUGAGGAGGUUUAUGGAAGUUUCGGCGGAUGCCUCCAAA [A12C G37U C50G U54G] ... 9.24e-05
AUAAAAGCGCCAGAAUUACAGAAAUGUAGUUGACGAGGAGGAGGUUUAUCGAAUUUUCGGCGGAUACCUCCAAA [C16U G66A] ... 0.00873
AUAAAUGCGCCAGAACUACAGAAAUGUAGUUGACGAGGGGGAGGUUUAUCGAAUUUUCGGCGGAUGCCUUCAAA [A6U A39G C70U] ... 8.18e-05
AUAAAAGCGCCAGAAUUACAGAAAUGUAGUUGACGAGGAGGAAGUUUAUCGAAUUUUCGGCGGAUGCCUCCAAA [C16U G43A] ... 2.82e-05

// query Return reported self-cleavage kobs at 2500 uM GlcN6P; argument: AUAAAAGCGCUAGAACUACAGAAAUGUAGUUGACGAGGUGGAGGUUUAUCGAAUUUUCGGCGGAUGCCUCCAAA [C11U A39U]
// result 0.000641

// query What does the record list as self-cleavage kobs at 2500 uM GlcN6P for AUAAAAGCGCCACAACUACAGAAAUGUAGUUGACGAGGAGGAGGUUUAUCGAAUUUUCGGCGGAUGCCUUCAAA [G13C C70U] ?
// result 0.000103

// query Reported self-cleavage kobs at 2500 uM GlcN6P, variant AUAAAAGCGCCAGAACUACAGAAAUGUACUUGACGAGGAGGAGGUUUAUCGGAUUUUCGGCGGAUGUCUCCAAA [G29C A52G C67U] : ____
// result 7.8e-05

// query So what's the measured self-cleavage kobs at 2500 uM GlcN6P for this one? AUAAAAGCGCCAGUAUUACAGAAAUGUAGUUGACGAGGAGGAGGUUUAUCGAAUUUUCGGCGGAUGCCUCCAAA [A14U C16U]
// result 0.00183

// query Requested field: self-cleavage kobs at 2500 uM GlcN6P. Item: AUAAAAGCGCCAGAACUACAGAAAUGUAGUUGACGAGGAGGAGGUUUAUCGAAUUGUCGGCGGAUGCCACCAAA [U56G U69A]
// result 0.000186

// query Given the variant AUAAAAGCGCCAGAAUUACAGAAAUGUAGUUUACGAGGAGGAGGUGUAUCGAAUUUUCGGCGGAUGCCUCCAAA [C16U G32U U46G] , what is its reported self-cleavage kobs at 2500 uM GlcN6P?
// result 6.51e-05

// query Which self-cleavage kobs at 2500 uM GlcN6P reading was recorded for the variant AUAAAAGCGCCGGAAUUACAGAAAUGUAGUUGACGAGGAGGAGGUUUAUCGACUUUUCGGCGGAUGCCUCCAAA [A12G C16U A53C] ?
// result 7.22e-05
